Data provenance is patent US20150037348A1.

Catalogue of PHA assay IC50 values
tested-system: T1, recombinant human IL-12 (rhIL-12) (human, UniProt P29459 23-219; P29460 23-328)
T1 sequence (looked up) 1: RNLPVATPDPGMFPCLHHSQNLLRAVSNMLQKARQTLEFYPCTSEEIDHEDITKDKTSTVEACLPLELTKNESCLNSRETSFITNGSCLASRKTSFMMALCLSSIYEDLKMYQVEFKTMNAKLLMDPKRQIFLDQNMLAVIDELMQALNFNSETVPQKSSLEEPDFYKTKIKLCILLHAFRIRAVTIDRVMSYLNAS
T1 sequence (looked up) 2: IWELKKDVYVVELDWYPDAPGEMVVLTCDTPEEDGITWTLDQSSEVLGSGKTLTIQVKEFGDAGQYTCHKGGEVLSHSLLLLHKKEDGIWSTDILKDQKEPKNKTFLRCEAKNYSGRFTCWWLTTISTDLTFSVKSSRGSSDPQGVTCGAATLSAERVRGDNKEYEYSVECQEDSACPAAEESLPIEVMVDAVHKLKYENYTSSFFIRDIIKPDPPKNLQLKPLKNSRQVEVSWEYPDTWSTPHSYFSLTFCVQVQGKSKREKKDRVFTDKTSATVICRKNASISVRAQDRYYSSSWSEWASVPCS
assay-info: cell-based or functional assay
Kindly answer with a numeric value in nM, unit omitted.

Y61-L94Y (scFv, V domains shown) VH: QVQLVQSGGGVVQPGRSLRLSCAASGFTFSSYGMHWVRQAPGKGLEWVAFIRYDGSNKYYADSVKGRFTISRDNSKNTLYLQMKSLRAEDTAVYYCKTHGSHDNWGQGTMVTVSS VL: QSVLTQPPSVSGAPGQRVTISCSGSRSNIGSNTVKWYQQLPGTAPKLLIYGNDQRPSGVPDRFSGSKSGTSASLAITGLQAEDEADYYCQSYDRYTHPALLFGTGTKVTVL :: 0.02

Problem: Which PHA assay IC50 value is on record for G6 (scFv, V domains shown, scFv clone) VH: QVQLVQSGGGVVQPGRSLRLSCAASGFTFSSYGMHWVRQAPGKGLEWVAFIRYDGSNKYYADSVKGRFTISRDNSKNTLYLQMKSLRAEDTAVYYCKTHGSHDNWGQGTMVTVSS VL: SYVLTQPPSVSGTPGQRVTISCSGGRSNIGSNTVKWYQQLPGTAPKLLIYGNDQRPSGVPDRFSGSKSGTSASLAITGVQAEDEADYYCQSYDRGTHPLTIFGTGTKVTVL ?
Result: 1

Problem: Which PHA assay IC50 value is on record for Y139 (scFv, V domains shown, scFv clone) VH: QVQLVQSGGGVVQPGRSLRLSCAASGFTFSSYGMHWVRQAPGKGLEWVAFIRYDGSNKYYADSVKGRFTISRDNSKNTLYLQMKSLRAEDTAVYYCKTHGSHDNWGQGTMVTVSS VL: SYVLTQPPSVSGTPGQRVTISCSGGRSNIGSNTVKWYQQLPGTAPKLLIYGNDQRPSGVPDRFSGSKSGTSASLAITGVQAEDEADYYCQSYDRGSHPALTFGTGTKVTVL ?
Result: 0.45
